Exercise: state measured Kp for each of the molecules provided.
- PROCEDURE_TEXT: Effect-compartment model of intracellular PBMC concentrations, DERIVE study
- Type: in vivo, human
- EXPERIMENTAL_CONTEXT: human, oral; PBMC effect compartment; estimate (95% CI); read-out: Pseudo‐partition coefficient, PPC (ratio of drug in PBMC to plasma)
Please reply with the number alone, leaving off any unit.

Kp recorded for this molecule, COC(=O)N[C@H](C(=O)N[C@@H](Cc1ccccc1)[C@@H](O)CN(Cc1ccc(-c2ccccn2)cc1)NC(=O)[C@@H](NC(=O)OC)C(C)(C)C)C(C)(C)C [Atazanavir, atazanavir] , is 0.653

Note to self: Kp recorded for CC(C)c1nc(CN(C)C(=O)N[C@H](C(=O)N[C@@H](Cc2ccccc2)C[C@H](O)[C@H](Cc2ccccc2)NC(=O)OCc2cncs2)C(C)C)cs1 [Ritonavir, ritonavir] was 1.68

----------
- PROCEDURE_TEXT: clinical
- EXPERIMENTAL_CONTEXT: human, in vivo
REPORTED_ENDPOINT: bioavailability (%)
Enter your answer as a number in %; do not include the unit.

bioavailability reading for COC(=O)N[C@H](C(=O)N[C@@H](Cc1ccccc1)[C@@H](O)CN(Cc1ccc(-c2ccccn2)cc1)NC(=O)[C@@H](NC(=O)OC)C(C)(C)C)C(C)(C)C : 100

----------
- PROCEDURE_TEXT: clinical
- EXPERIMENTAL_CONTEXT: human, in vivo
REPORTED_ENDPOINT: clearance (mL/min)
Note: unit mL/min is implicit; provide only the numeric part.

Kindly note the recorded clearance for COC(=O)N[C@H](C(=O)N[C@@H](Cc1ccccc1)[C@@H](O)CN(Cc1ccc(-c2ccccn2)cc1)NC(=O)[C@@H](NC(=O)OC)C(C)(C)C)C(C)(C)C [Atazanavir, atazanavir] , which is 58.5

----------
Answer each item with its documented bioavailability.
- PROCEDURE_TEXT: Population pharmacokinetic model of plasma atazanavir and ritonavir concentrations, DERIVE study (ATV/r with or without rifampicin)
- EXPERIMENTAL_CONTEXT: human, plasma, oral
Express it in %; write the number only.

Notebook: CC(C)c1nc(CN(C)C(=O)N[C@H](C(=O)N[C@@H](Cc2ccccc2)C[C@H](O)[C@H](Cc2ccccc2)NC(=O)OCc2cncs2)C(C)C)cs1 [Ritonavir, ritonavir] , bioavailability read as 100

The molecule COC(=O)N[C@H](C(=O)N[C@@H](Cc1ccccc1)[C@@H](O)CN(Cc1ccc(-c2ccccn2)cc1)NC(=O)[C@@H](NC(=O)OC)C(C)(C)C)C(C)(C)C [Atazanavir, atazanavir] showed bioavailability equal to 100

----------
- PROCEDURE_TEXT: Population pharmacokinetic model of plasma atazanavir and ritonavir concentrations, DERIVE study (ATV/r with or without rifampicin)
- EXPERIMENTAL_CONTEXT: human, plasma, oral, Clearance, CL, ATV/r 300/100 mg QD without rifampicin; typical participant 67 kg, fat‐free mass 42 kg; typical estimate (95% CI)
REPORTED_ENDPOINT: clearance

Just so you know, measured clearance for CC(C)c1nc(CN(C)C(=O)N[C@H](C(=O)N[C@@H](Cc2ccccc2)C[C@H](O)[C@H](Cc2ccccc2)NC(=O)OCc2cncs2)C(C)C)cs1 [Ritonavir, ritonavir] came out at 161 mL/min

----------
- PROCEDURE_TEXT: Effect-compartment model of intracellular PBMC concentrations, DERIVE study
- Format: in vivo, human
- EXPERIMENTAL_CONTEXT: human, PBMC, oral, PBMC effect compartment; estimate (95% CI); read-out: Equilibration half‐life, t 1/2 (plasma to PBMC) (converted)
REPORTED_ENDPOINT: half-life

According to the records, this compound CC(C)c1nc(CN(C)C(=O)N[C@H](C(=O)N[C@@H](Cc2ccccc2)C[C@H](O)[C@H](Cc2ccccc2)NC(=O)OCc2cncs2)C(C)C)cs1 displays half-life of ~1 h

// half-life lookup, compound = COC(=O)N[C@H](C(=O)N[C@@H](Cc1ccccc1)[C@@H](O)CN(Cc1ccc(-c2ccccn2)cc1)NC(=O)[C@@H](NC(=O)OC)C(C)(C)C)C(C)(C)C , result: ~1 h

----------
- PROCEDURE_TEXT: clinical
- EXPERIMENTAL_CONTEXT: human, in vivo
REPORTED_ENDPOINT: Km (µg/mL)
Lab book: enter the figure in µg/mL, no units written.

The compound CO[C@H]1/C=C/O[C@@]2(C)Oc3c(C)c(O)c4c(O)c(c(/C=N/N5CCN(C)CC5)c(O)c4c3C2=O)NC(=O)/C(C)=C\C=C\[C@H](C)[C@H](O)[C@@H](C)[C@@H](O)[C@@H](C)[C@H](OC(C)=O)[C@@H]1C showed Km equal to 4.9
